Can you tell me IC50 (µg/mL), neutralization of pseudovirus for the items I'm about to list?
# assayed.target: HIV-1 Env of isolate MGRM-G-019 (subtype G), on pseudovirus (HIV-1)
# protocol: cell-based or functional assay
One number for each entry, in µg/mL.

Please state, for each entry, its recorded IC50 (µg/mL), neutralization of pseudovirus.
1. PGT-137 (antibody, V domains shown) VH: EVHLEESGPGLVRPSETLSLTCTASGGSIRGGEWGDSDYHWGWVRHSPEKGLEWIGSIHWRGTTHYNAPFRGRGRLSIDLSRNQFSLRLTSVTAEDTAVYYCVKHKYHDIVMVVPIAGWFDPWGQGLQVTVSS VL: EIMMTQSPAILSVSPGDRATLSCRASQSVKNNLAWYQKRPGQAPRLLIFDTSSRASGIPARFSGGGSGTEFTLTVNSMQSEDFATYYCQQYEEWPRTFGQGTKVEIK
2. PGT-126 (antibody, V domains shown) VH: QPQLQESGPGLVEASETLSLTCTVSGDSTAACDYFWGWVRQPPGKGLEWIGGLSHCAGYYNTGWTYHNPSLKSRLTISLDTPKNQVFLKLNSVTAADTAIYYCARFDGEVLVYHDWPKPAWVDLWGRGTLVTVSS VL: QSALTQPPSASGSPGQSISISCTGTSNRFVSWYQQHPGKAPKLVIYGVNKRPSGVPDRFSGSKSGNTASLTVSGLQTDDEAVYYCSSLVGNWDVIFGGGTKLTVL
3. PGT-130 (antibody, V domains shown) VH: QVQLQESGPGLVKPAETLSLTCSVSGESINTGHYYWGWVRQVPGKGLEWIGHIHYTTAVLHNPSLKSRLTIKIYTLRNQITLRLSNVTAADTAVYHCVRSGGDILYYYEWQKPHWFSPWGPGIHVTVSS VL: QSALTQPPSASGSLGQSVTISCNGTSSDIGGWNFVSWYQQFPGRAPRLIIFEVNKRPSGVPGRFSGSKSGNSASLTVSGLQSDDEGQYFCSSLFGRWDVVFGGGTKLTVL
4. PGT-127 (antibody, V domains shown) VH: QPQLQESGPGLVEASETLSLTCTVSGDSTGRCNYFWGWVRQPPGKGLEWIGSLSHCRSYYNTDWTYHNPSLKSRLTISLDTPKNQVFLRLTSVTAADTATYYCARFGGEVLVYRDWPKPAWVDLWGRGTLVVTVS VL: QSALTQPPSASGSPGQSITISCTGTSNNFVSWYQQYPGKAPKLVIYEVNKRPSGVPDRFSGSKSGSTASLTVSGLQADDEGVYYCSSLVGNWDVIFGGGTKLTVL
5. PGT-136 (antibody, V domains shown) VH: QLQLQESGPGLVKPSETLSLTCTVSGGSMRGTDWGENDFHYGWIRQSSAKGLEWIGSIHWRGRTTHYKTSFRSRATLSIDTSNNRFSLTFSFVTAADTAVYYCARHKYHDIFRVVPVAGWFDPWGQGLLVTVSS VL: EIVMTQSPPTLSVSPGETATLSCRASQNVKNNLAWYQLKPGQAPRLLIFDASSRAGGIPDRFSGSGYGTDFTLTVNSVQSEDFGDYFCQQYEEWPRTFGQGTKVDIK

Reply:
[0.126, 0.018, 27.9, 0.429, 44.3]
